test system: Hep-2 cells; test: Toxicity studies (XTT), Hep-2 cells; assay type: cell-based; set-up: unit not given beside the values; settings: Table 2, Examples 75 to 82 and 125 to 184, 6d, in µM
Readout: TC50 (6d)

Take a look at these entries with their results.
compound="CCOc1ccc2ccccc2c1C(=O)NC1N=C(c2ccccc2)c2ccccc2NC1=O (stereo not drawn)" assay_result=>50
compound="CC(C)(C)NC(=O)NC1N=C(c2ccccc2)c2ccccc2NC1=O (stereo not drawn)" assay_result=>100
compound="COc1cc2ccccc2cc1C(=O)NC1N=C(c2ccccc2)c2ccccc2NC1=O (stereo not drawn) [Example 82a]" assay_result=>50
compound="CCNC(=O)NC1N=C(c2ccccc2)c2ccccc2NC1=O (stereo not drawn)" assay_result=>100
compound="CSc1ccccc1C(=O)NC1N=C(c2ccccc2)c2ccccc2NC1=O (stereo not drawn)" assay_result=>50
compound="O=C(NC1N=C(c2ccccc2)c2ccccc2NC1=O)c1cn[nH]c1 (stereo not drawn)" assay_result=95
compound="CCOC(=O)NC1N=C(c2ccccc2)c2ccccc2NC1=O (stereo not drawn)" assay_result=>50
compound="COc1cc(S(C)(=O)=O)ccc1C(=O)N[C@H]1N=C(c2ccccc2)c2ccccc2NC1=O [Example 75b]" assay_result=>50

Switching to the query record.
Look up and report TC50 (6d), with Hep-2 cells as system, for CCCCNC(=O)NC1N=C(c2ccccc2)c2ccccc2NC1=O (stereo not drawn)
>100
